Source listed as patent US20240034737A1.

Biological target: mP2X7 (Mus musculus (Mouse))
Sequence (Q9Z1M0 whole entry): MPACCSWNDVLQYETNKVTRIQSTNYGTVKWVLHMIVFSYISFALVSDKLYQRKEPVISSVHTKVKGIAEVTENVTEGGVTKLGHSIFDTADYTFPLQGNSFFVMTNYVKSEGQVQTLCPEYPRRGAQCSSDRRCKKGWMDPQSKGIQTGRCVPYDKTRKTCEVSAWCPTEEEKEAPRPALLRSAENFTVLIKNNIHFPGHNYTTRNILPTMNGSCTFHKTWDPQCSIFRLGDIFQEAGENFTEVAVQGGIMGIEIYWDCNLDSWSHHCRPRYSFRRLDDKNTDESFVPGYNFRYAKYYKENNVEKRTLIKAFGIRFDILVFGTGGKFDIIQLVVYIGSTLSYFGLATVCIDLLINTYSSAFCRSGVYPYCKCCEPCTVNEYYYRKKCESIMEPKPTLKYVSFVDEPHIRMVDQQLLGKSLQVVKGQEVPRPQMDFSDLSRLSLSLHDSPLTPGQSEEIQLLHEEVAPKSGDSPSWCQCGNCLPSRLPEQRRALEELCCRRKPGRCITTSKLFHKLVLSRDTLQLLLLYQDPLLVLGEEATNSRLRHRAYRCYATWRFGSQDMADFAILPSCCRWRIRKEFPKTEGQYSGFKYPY
Experiment: mP2X7 channel calcium-influx assay (Fluo-8 NW, FLIPR TETRA, Bz-ATP stimulation)
reported_endpoint: IC50 (nM)
Quick note: give the figure in nM, leave out the unit.

Here are 2 compounds together with their reported answers.
Cc1cccnc1OCC1CCN(C(CNC(=O)c2c(F)cccc2Cl)c2scnc2C(F)F)CC1 (stereo not drawn) ... 15.2
N#Cc1cncc(OCC2CCN(C(CNC(=O)c3c(F)cccc3Cl)c3scnc3C(F)F)CC2)c1 (stereo not drawn) ... 38.9

// query Consider the compound shown here: O=C(NCC(c1scnc1C(F)F)N1CCC(Oc2ccncc2F)CC1)c1c(F)cccc1Cl (stereo not drawn) What is its recorded IC50?
// result 69.7
